Test system: UO-31 renal
Test: NCI tumour cell line growth inhibition, 48 h; in the data active means GI50 below about 0.43 µM; inactive means the rest
Hi! Could you answer with just one of these? active, inactive

COc1ccc(/C=C(/c2ccccc2)[N+](=O)[O-])cc1 = inactive
COc1ccc2c(c1)C(C)Cc1c(ncnc1-n1cnc3cc(C)ccc31)N2C (stereo not drawn) = active

Here is another compound to look at.
Prompt: Per the records of this test, what outcome belongs to c1csc(-c2c3ccc(=[N+]4CCCCC4)cc-3oc3cc(N4CCCCC4)ccc23)c1 ?
Completion: active

---

Test system: RXF 393 renal
Assay: NCI tumour cell line growth inhibition, 48 h
Measured GI50, listed per entry for reference.

Recorded GI50, per entry:
O=C(OCc1ccc2c(Cl)cc(Cl)c(O)c2n1)N1CCN(C(=O)c2cc3cc(F)ccc3[nH]2)CC1 = 3.03 µM
O=C(NO)c1ccc(CN(c2cnccn2)c2cnccn2)cc1 = 11.5 µM
O=C([CH-]C(=O)c1ccccc1)c1ccccc1.O=C([CH-]C(=O)c1ccccc1)c1ccccc1.[O]=[U+2]=[O] = 2.35 µM

Now for the molecule whose GI50 we want.
Prompt: Look up GI50 for this molecule: O=C1CSC(c2ccc(-c3nc4ccccc4s3)cc2)=N1
Completion: 28.9 µM
